Molecular target: Neu5Ac(a2-3)Gal(b1-4)GlcNAc(b1-2)[Neu5Ac(a2-3)Gal(b1-4)GlcNAc(b1-4)]Man(a1-3)[GlcNAc(b1-4)][Neu5Ac(a2-3)Gal(b1-4)GlcNAc(b1-4)Man(a1-6)]Man(b1-4)GlcNAc(b1-4)GlcNAc
Assay: glycan array binding signal (z-score within array); higher = stronger binding
Details: glycan notation: IUPAC condensed, linker removed
The full list was thinned out, with the strongest signals kept by preference.
Mark rule met for reported glycan array binding signal (z-score) of -0.3 or greater; mark rule not met for anything smaller.

Banana lectin (Musa acuminata) (protein) MNGAIKVGAWGGNGGSAFDMGPAYRIISVKIFSGDVVDGVDVTFTYYGKTETRHYGGSGGTPHEIVLQEGEYLVGMAGEVANYHGAVVLGKLGFSTNKKAYGPFGNTGGTPFSLPIAAGKISGFFGRGGKFLDAIGVYLEPLEHHHHHH	rule met
cFel (Cyprinus carpio), P68512 (protein) LDCTVIDGNLKQIDAGSGSVVGVNNLNETFVLIDNVFTKISGSLKHFSVGPAGQLGVNTANNIFKYQSGGFVQLAGLLKQVDAGGDQIIAGVNMYDDIYCLNMDANNKWPSSNTPWVQINGKLKYYSCGPYSCWGVNSNDQIFIMKDVSSNVCSGSGSFINIPGLLSMIEVATDGSVFGVNSQGNLYQRTGVTRSKPDGTDWISMVACPNGHKHVSFDLGVLWLVCVDGSIRKCILTD	rule not met
LBL-152 (Laetiporus bicolor), B0D650 (protein) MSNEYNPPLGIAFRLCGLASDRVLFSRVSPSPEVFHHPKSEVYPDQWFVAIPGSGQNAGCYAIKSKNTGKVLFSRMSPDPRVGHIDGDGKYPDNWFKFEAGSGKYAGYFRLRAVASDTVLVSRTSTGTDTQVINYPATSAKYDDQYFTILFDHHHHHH	rule met
Gal 8 (Homo sapiens) (protein) MLSLNNLQNIIYNPVIPYVGTIPDQLDPGTLIVICGHVPSDADRFQVDLQNGSSVKPRADVAFHFNPRFKRAGCIVCNTLINEKWGREEITYDTPFKREKSFEIVIMVLKDKFQVAVNGKHTLLYGHRIGPEKIDTLGIYGKVNIHSIGFSFSSDLQSTQASSLELTEISRENVPKSGTPQLQTVSPSWDLQGHGSETFCSVLWTRVFLEIAFCRPIGLTVASFQSLPFAARLNTPMGPGRTVVVKGEVNANAKSFNVDLLAGKSKDIALHLNPRLNIKAFVRNSFLQESWGEEERNITSFPFSPGMYFEMIIYCDVREFKVAVNGVHSLEYKHRFKELSSIDTLEINGDIHLLEVRSW	rule not met
Erv41-EDTA (Saccharomyces cerevisiae), Q04651 (protein) MKFLVNVALVFMVVYISYIYAAAPEHHHHHHDYDIPTTENLYFQGAMGYIDQQYVVDSQVRDTVQINMDIYVNTKCDWLQINVRDQTMDRKLVLEELQLEEMPFFIPYDTKVNDINEIITPELDEILGEAIPAEFREKLDTRSFFDESDPNKAHLPEFNGCHVFGSIPVNRVSGELQITAKSLGYVASRKAPLEELKFNHVINEFSFGDFYPYIDNPLDNTAQFNQDEPLTTYVYYTSVVPTLFKKLGAEVDTNQYSVNDYRYLYKDVAAKGDKMPGIFFKYNFEPLSIVVSDVRL	rule not met
